B1: PRPH (parent)
chain: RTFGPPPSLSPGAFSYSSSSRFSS

- Variants of: B1
- test-details: protein stability index of a GFP-peptide fusion (GPS, HEK-293T) (PSI 1-6); higher = more stable;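 also: lentivirally expressed fusions sorted by FACS into six bins by GFP to DsRed ratio, PSI derived from sequencing read proportions per bin multiplied by bin number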
- measurement-parameters: c terminus: a fixed tail appended
Binary call on protein stability index: 1 (yes) from 3 upward, 0 (no) beneath that.

Problem: Decide: is the reported value of protein stability index for `G4H` equal to or greater than 3?
Solution: 1 (yes)

Problem: Decide: is the reported value of protein stability index for `R21W` equal to or greater than 3?
Solution: 0 (no)

Problem: Decide: is the reported value of protein stability index for `T2K` equal to or greater than 3?
Solution: 0 (no)

Problem: Decide: is the reported value of protein stability index for `R21P` equal to or greater than 3?
Solution: 1 (yes)

Problem: Decide: is the reported value of protein stability index for `F14M` equal to or greater than 3?
Solution: 1 (yes)

Problem: Decide: is the reported value of protein stability index for `P7M` equal to or greater than 3?
Solution: 0 (no)

Problem: Decide: is the reported value of protein stability index for `R21A` equal to or greater than 3?
Solution: 0 (no)

Problem: Decide: is the reported value of protein stability index for `R21T` equal to or greater than 3?
Solution: 1 (yes)

Problem: Decide: is the reported value of protein stability index for `F14V` equal to or greater than 3?
Solution: 1 (yes)

Problem: Decide: is the reported value of protein stability index for `S8K` equal to or greater than 3?
Solution: 0 (no)

Problem: Decide: is the reported value of protein stability index for `F22V` equal to or greater than 3?
Solution: 1 (yes)

Problem: Decide: is the reported value of protein stability index for `S15M` equal to or greater than 3?
Solution: 0 (no)

Problem: Decide: is the reported value of protein stability index for `P6S` equal to or greater than 3?
Solution: 1 (yes)

Problem: Decide: is the reported value of protein stability index for `S15W` equal to or greater than 3?
Solution: 0 (no)

Problem: Decide: is the reported value of protein stability index for `R21G` equal to or greater than 3?
Solution: 0 (no)

Problem: Decide: is the reported value of protein stability index for `S10V` equal to or greater than 3?
Solution: 0 (no)

Problem: Decide: is the reported value of protein stability index for `F22E` equal to or greater than 3?
Solution: 1 (yes)

Problem: Decide: is the reported value of protein stability index for `P6K` equal to or greater than 3?
Solution: 1 (yes)

Problem: Decide: is the reported value of protein stability index for `L9H` equal to or greater than 3?
Solution: 1 (yes)
